System: OVCAR-4
experiment_description: Growth inhibition of human OVCAR4 cells assessed as cell growth at 10^-8 M incubated for 48 hrs by sulforhodamine B assay relative to control
Assay type: functional
condition_parameters: OVCAR-4, 48 h, read-out: Activity
Catalogue of growth at 0.01 µM values

> print(dat)
                                        smi       test.readout  result
1  C#C[C@@]1(O)[C@@H](CO)O[C@@H](n2ccc3c(N)ncnc32)[C@@H]1O  growth at 0.01 µM     93%

Query :: Please report the measured growth at 0.01 µM for C#C[C@@]1(O)[C@@H](CO)O[C@@H](n2cc(Cl)c3c(N)ncnc32)[C@@H]1O
Result :: 89 to 90%

Query :: Respond only with growth at 0.01 µM recorded for C#C[C@@]1(O)[C@@H](CO)O[C@@H](n2cc(I)c3c(N)ncnc32)[C@@H]1O
Result :: 90 to 104%

Query :: Retrieve growth at 0.01 µM measured for C#C[C@@]1(O)[C@@H](CO)O[C@@H](n2cc(Br)c3c(N)ncnc32)[C@@H]1O and print it.
Result :: 96 to 100%

Query :: Give the reported growth at 0.01 µM for this compound. C#C[C@@]1(O)[C@@H](CO)O[C@@H](n2cc(F)c3c(N)ncnc32)[C@@H]1O
Result :: 100%
